Entry source: paper PMC5540273

Test system: FLT3-autoinhibited
Settings: concentration: 1 μM, replicates: in singlicate; n = 1
quantity_measured: %Inh (%)
Please respond with the number in % and leave the unit unwritten.

Nc1n[nH]c2cnc(-c3ccccc3)cc12	0
Cl.NC(=O)c1cccc(Nc2nccc(Nc3ccc(Oc4c(Cl)cccc4Cl)c(Cl)c3)n2)c1	12
c1ccc(Oc2ccc(Nc3ccnc4cc(-c5ccc(CNCCN6CCOCC6)o5)ccc34)cc2)nc1	8

As a next step, examine the compound that follows.
Request - read-out %Inh | tested on FLT3-autoinhibited | compound O=C(Nc1cccc(-c2nn3ccccc3c2-c2ccnc(Nc3cccc(C(F)(F)F)c3)n2)c1)c1c(F)cccc1F;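 further: KINOMEscan kinase panel screen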
5
